Substrate: c1ccc([C@@H]2CO2)cc1
Experiment: purified protein
Assay type: biochemical, Phanerodontia chrysosporium
Settings: 10-80 mM SO, 37 °C, buffer pH 8.0
Consider the cut-off 20 mM. If the recorded Km is strictly smaller, the label is Fulfilled; if not, the label is Not fulfilled.

Strictly below 20 mM in Km? PchEHA (epoxide hydrolase) (Phanerodontia chrysosporium) (protein, catalytic triad D105/H308/D277) MDASLFKDFKTSRGFNYHYFYSPAKGPRPTLFFLHGNPSVATDWAQIVPHFTSRGYGVLAPDMLGYGDTDKPTDPALYVSSGMCRNLVDLLDHEGLEKVIAIGHDWGCLSVSRLASYYPERVIAYAFLAASFIGPIPPIPFDAFLEYIKQQVGYELYGYWKFYSEPGLDQFVRDHLDTFLSILWPSDPAVWKTRLAPTGALKQSALEGWTAPLAPYITEEFKKHHVEVFNKNGFEAPACYYRIMTSGLQAEDDKQILPERAVPPKDAPVFFGAANKDYICIPALAYATFKKDEWKDHKITIKEYDADHWLILSHADQVSRDLEAWIEGFASGGQ
Not fulfilled

Strictly below 20 mM in Km? PchEHA (epoxide hydrolase) (Phanerodontia chrysosporium; A24T/E251G) (protein, catalytic triad D105/H308/D277) MDASLFKDFKTSRGFNYHYFYSPTKGPRPTLFFLHGNPSVATDWAQIVPHFTSRGYGVLAPDMLGYGDTDKPTDPALYVSSGMCRNLVDLLDHEGLEKVIAIGHDWGCLSVSRLASYYPERVIAYAFLAASFIGPIPPIPFDAFLEYIKQQVGYELYGYWKFYSEPGLDQFVRDHLDTFLSILWPSDPAVWKTRLAPTGALKQSALEGWTAPLAPYITEEFKKHHVEVFNKNGFEAPACYYRIMTSGLQAGDDKQILPERAVPPKDAPVFFGAANKDYICIPALAYATFKKDEWKDHKITIKEYDADHWLILSHADQVSRDLEAWIEGFASGGQ
Not fulfilled

Strictly below 20 mM in Km? PchEHA (epoxide hydrolase) (Phanerodontia chrysosporium; E251G/G14A/K291R) (protein, catalytic triad D105/H308/D277) MDASLFKDFKTSRAFNYHYFYSPAKGPRPTLFFLHGNPSVATDWAQIVPHFTSRGYGVLAPDMLGYGDTDKPTDPALYVSSGMCRNLVDLLDHEGLEKVIAIGHDWGCLSVSRLASYYPERVIAYAFLAASFIGPIPPIPFDAFLEYIKQQVGYELYGYWKFYSEPGLDQFVRDHLDTFLSILWPSDPAVWKTRLAPTGALKQSALEGWTAPLAPYITEEFKKHHVEVFNKNGFEAPACYYRIMTSGLQAGDDKQILPERAVPPKDAPVFFGAANKDYICIPALAYATFKRDEWKDHKITIKEYDADHWLILSHADQVSRDLEAWIEGFASGGQ
Not fulfilled

Strictly below 20 mM in Km? PchEHA (epoxide hydrolase) (Phanerodontia chrysosporium; E251G/Y163H) (protein, catalytic triad D105/H308/D277) MDASLFKDFKTSRGFNYHYFYSPAKGPRPTLFFLHGNPSVATDWAQIVPHFTSRGYGVLAPDMLGYGDTDKPTDPALYVSSGMCRNLVDLLDHEGLEKVIAIGHDWGCLSVSRLASYYPERVIAYAFLAASFIGPIPPIPFDAFLEYIKQQVGYELYGYWKFHSEPGLDQFVRDHLDTFLSILWPSDPAVWKTRLAPTGALKQSALEGWTAPLAPYITEEFKKHHVEVFNKNGFEAPACYYRIMTSGLQAGDDKQILPERAVPPKDAPVFFGAANKDYICIPALAYATFKKDEWKDHKITIKEYDADHWLILSHADQVSRDLEAWIEGFASGGQ
Fulfilled
